System: C1-3 cell line (calcitonin secretion)
Assay: Calcitonin Secretion/RIA Assay
Type: cell-based, human
Details: Homo sapiens, C13, ratio of calcitonin secretion vs untreated control, active if >2.5
Quick reference for fold induction at 30 µM among some molecules

{"chemical smiles": "CCCCn1c(=O)c2nn(S(=O)(=O)CCCCl)cc2n(CCC(C)C)c1=O", "fold induction at 30 µM": 2.25}
{"chemical smiles": "CCCCn1c(=O)c2nn(S(=O)(=O)c3cccc(C(F)(F)F)c3)cc2n(CCCC)c1=O", "fold induction at 30 µM": 3.79}
{"chemical smiles": "CCCCn1c(=O)c2nn(S(=O)(=O)c3c(Cl)cc(Cl)cc3Cl)cc2n(CCCC)c1=O", "fold induction at 30 µM": 4.31}
{"chemical smiles": "CCCCn1c(=O)c2nn(S(=O)(=O)c3ccc(C(C)(C)C)cc3)cc2n(CCCC)c1=O", "fold induction at 30 µM": 4.5}
{"chemical smiles": "CCCCn1c(=O)c2nn(S(=O)(=O)CCCCl)cc2n(CCCC)c1=O", "fold induction at 30 µM": 4.35}
{"chemical smiles": "CCCCn1c(=O)c2cn(S(=O)(=O)c3cc(Cl)c(Cl)s3)nc2n(CCCC)c1=O", "fold induction at 30 µM": 3.67}
{"chemical smiles": "Cn1c(=O)c2cn(S(=O)(=O)CCCCl)nc2n(C)c1=O", "fold induction at 30 µM": 1.02}
